Attribution: PubChem BioAssay (NCATS)

- assay method text: qHTS of pediatric cancer cell lines to identify multiple opportunities for drug repurposing: Primary screen for NB1643 cells (AID 1347099); note: nearly all actives have a fitted effect of over 50% in size
- recorded conditions: NB1643 neuroblastoma viability, CellTiter-Glo luminescence, 48 h; series mostly up to 46 µM
Results filed as inconclusive are left out. Active and inactive are the calls of the source. Calls come from the whole dose curve; as a rule, active = well fitted cell-killing curve with a large enough effect; inconclusive = small, poorly fitted or top-dose-only effect; inactive = no such curve, though single readings can be large or run the other way. Positions of bridges follow the written chain, without caps; N, C: chain ends. Non-standard residues stand in square brackets, D forms with d. Residues, ends and D or L forms follow the SMILES beside them. ξ: configuration not given here. *: point of attachment. Octanoyl(6-Me) = CCC(C)CCCCC(=O)*; ξThr(3R) = C[C@@H](O)C(N)C(=O)O; dDab = NCC[C@@H](N)C(=O)O; Dab = NCC[C@H](N)C(=O)O
Select the correct class. Options are y = active, n = inactive and nothing else.

{"compound": "O=C(O)C=Cc1ccc(Cn2ccnc2)cc1", "assigned category": "n"}

Dear colleague, could you share the recorded outcome for c1coc(CNc2ncnc3nc[nH]c23)c1 when you have a moment?
n

# repeat for CCC(C)CCCCC(=O)N[C@@H](CCN)C(=O)NC(C(=O)N[C@H](CCN)C(=O)N[C@@H]1CCNC(=O)C([C@@H](C)O)NC(=O)[C@@H](CCN)NC(=O)[C@@H](CCN)NC(=O)[C@@H](CC(C)C)NC(=O)[C@H](Cc2ccccc2)NC(=O)[C@H](CCN)NC1=O)[C@@H](C)O (stereo partly drawn) ({Octanoyl(6-Me)}-[Dab][ξThr(3R)][dDab][dDab][Dab]F[dL][dDab][dDab][ξThr(3R)]; lactam 4-C)
n

# repeat for C=CC(=O)Nc1cccc(Nc2nc(NC3CCC(N(C)C)CC3)nc3c2ncn3C(C)C)c1 (configuration not stated)
y

# repeat for CN(C)CCN1C(=O)c2cccc3cc(N)cc(c23)C1=O
y

# repeat for C=C1CCC2[C@](C)(CO)C(O)CC[C@]2(C)C1CC=C1C(=O)OCC1O (some centres not stated)
n

# repeat for O=C(O)CCCCCC(=O)NN=C1CCCC1
n

----------
- assay method text: qHTS of pediatric cancer cell lines to identify multiple opportunities for drug repurposing: Primary screen for Rh18 cells (AID 1347102); note: nearly all actives have a fitted effect of over 65% in size
- recorded conditions: Rh18 rhabdomyosarcoma viability, CellTiter-Glo luminescence, 48 h; series mostly up to 46 µM
Results filed as inconclusive are left out. Active and inactive are the calls of the source. The call rests on the fitted dose curve; in most records, active means well fitted cell-killing curve with a large enough effect; inconclusive means small, poorly fitted or top-dose-only effect; inactive means flat fitted curve, though single readings scatter.
Select the correct class. Options are active, inactive and nothing else.

Dear colleague, could you share the recorded outcome for O=C(NC1CC1)c1cccc(-c2ccc3c(NC(=O)C4CC4)n[nH]c3c2)c1 when you have a moment?
active

# repeat for O=C(O)C(=O)Nc1cccc(C2=NN=N[N]2)c1
inactive

# repeat for COc1ccc(C=Cc2cc(OC)c(OC)c(OC)c2)cc1NC(=O)[C@H](N)CO
inactive

# repeat for Nc1ccc(C(=O)Nc2cccc(-c3nc(N4CCOCC4)c4oc5ncccc5c4n3)c2)cn1
active

# repeat for O=C1CSC(=O)N1C(CCc1ccncc1)COc1ccc(-c2cccc([N+](=O)[O-])c2)cc1 (centres undefined)
inactive

# repeat for C=C1C(=CC=C2CCC[C@]3(C)[C@@H]([C@H](C)CCCC(C)(C)O)CC[C@@H]23)C[C@@H](O)C[C@@H]1O
active

# repeat for COc1ccc(Nc2nccc(NCCO)n2)cc1
inactive

# repeat for Cc1onc(-c2ccccc2)c1C(=O)N[C@@H]1C(=O)N2[C@@H](C(=O)O)C(C)(C)S[C@@H]12
inactive

# repeat for NC[C@H]1O[C@H](O[C@H]2[C@@H](O)[C@@H](O[C@H]3O[C@H](CO)[C@@H](O)[C@H](N)[C@@H]3O)[C@H](N)C[C@@H]2N)[C@H](N)C[C@H]1O
inactive

----------
- assay method text: qHTS of pediatric cancer cell lines to identify multiple opportunities for drug repurposing: Primary screen for SK-N-SH cells (AID 1347098); note: nearly all actives have a fitted effect of over 65% in size
- recorded conditions: SK-N-SH viability, CellTiter-Glo luminescence, 48 h; series mostly up to 57 µM
- Description: Drug repurposing or repositioning has been offered as a strategy for drug development in oncology programs. […] [1] Shen, M et al. Quantitative high-throughput phenotypic screening of pediatric cancer cell lines identifies multiple opportunities for drug repurposing. […] Cells were assayed in growth media at a density of 500-1,000 cells/well. […] After a 15 min incubation at room temperature, samples were analyzed for luminescence intensity using a ViewLux High-throughput CCD imager equipped with clear filters.
Inconclusive results are not listed. Active and inactive are the calls of the source. The call rests on the fitted dose curve; in most records, active means well fitted cell-killing curve with a large enough effect; inconclusive means small, poorly fitted or top-dose-only effect; inactive means no such curve, though single readings can be large or run the other way. Non-standard residues stand in square brackets, D forms with d. Residues, ends and D or L forms follow the SMILES beside them. *: point of attachment. Nva = CCC[C@H](N)C(=O)O; Cbz = O=C(OCc1ccccc1)*
Select the correct class. Options are YES for active, NO for inactive and nothing else.

Answered examples (2):
{"compound": "COc1cc(OC)c(C=CS(=O)(=O)Cc2ccc(OC)c(NCC(=O)O)c2)c(OC)c1", "assigned category": "YES"}
{"compound": "CCS(=O)(=O)Nc1ccc2[nH]c(O)c(C(=Nc3ccc(CN4CCCCC4)cc3)c3ccccc3)c2c1", "assigned category": "YES"}

Dear colleague, could you share the recorded outcome for CC(C)Oc1ccc(C(=O)N[C@H](CNC(=O)CN(C)C)Cc2ccc(-c3cn4cccc([C@H](C)O)c4n3)cc2)cc1Cl when you have a moment?
YES

# repeat for c1ccc(CNc2nc(NCc3ccccc3)c3ccccc3n2)cc1
YES

# repeat for CCC[C@@H](C=O)NC(=O)[C@H](CC(C)C)NC(=O)[C@H](CC(C)C)NC(=O)OCc1ccccc1 (Cbz-Leu-Leu-[Nva]-aldehyde)
YES

# repeat for C=CC(=O)Nc1ccc2ncnc(Nc3ccc(OCc4cccc(F)c4)c(Cl)c3)c2c1
YES

# repeat for N#Cc1c(C2CCNCC2)cc(-c2c(O)cccc2OCC2CC2)nc1N
YES

# repeat for C[N+]1(C)[C@@H]2C[C@@H](OC(=O)C(O)(c3cccs3)c3cccs3)C[C@H]1[C@@H]1O[C@@H]12
NO

----------
Known Potency of a selection of compounds
- assay method text: Quantitative High-Throughput drug screen in 47 multiple myeloma cell lines against the NCATS MIPE library collection: VP6_DJ cell viability assay (AID 1919867); note: potency is the fitted concentration of half-maximal effect; nearly all actives have a fitted effect of over 40% in size
- recorded conditions: ATP luminescence, 48 h; series mostly up to 45.8 µM
Results filed as inconclusive are left out. The source made the active and inactive calls. Calls come from the whole dose curve; as a rule, active = well fitted cell-killing curve with a large enough effect; inconclusive = small, poorly fitted or top-dose-only effect, or effect the other way; inactive = no such curve, though single readings can be large or run the other way.

These recorded examples may help you get a feel for the data.
{"smiles input": "CCCCOc1ccc(C(=O)Nc2ccc(F)cc2F)cc1", "Potency": "7.43 µM (active)"}
{"smiles input": "COc1ccc(Nc2cc(-c3cnc(N)nc3)nc(N3CCOCC3)n2)cn1", "Potency": "5.26 µM (active)"}
{"smiles input": "O=C(C[C@@H]1CC=CCCC(=O)O[C@H](c2ccccc2)CNC1=O)NCc1ccc(Cl)cc1", "Potency": "13.2 µM (active)"}

I am curious: what Potency value has been reported for C=CC(=O)N1CCc2ccc(-n3c(=O)ccc4cnc5ccc(-c6cnn(C)c6)cc5c43)cc21 ?
2.96 µM (active)

----------
- assay method text: qHTS of pediatric cancer cell lines to identify multiple opportunities for drug repurposing: Primary screen for BT-12 cells (AID 1347101);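 note: plate controls were DMSO for no effect and bortezomib positive control for full effect; nearly all actives have a fitted effect of over 25% in size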
- recorded conditions: BT-12 viability, CellTiter-Glo luminescence, 48 h; series mostly up to 57.3 µM
Inconclusive results are not listed. Activity calls are given as the source filed them. The call rests on the fitted dose curve; in most records, active means well fitted cell-killing curve with a large enough effect; inconclusive means small, poorly fitted or top-dose-only effect; inactive means flat fitted curve, though single readings scatter.
Select the correct class. Options are 1 = active, 0 = inactive and nothing else.

{"molecule": "C=CC1=C(C(=O)O)N2C(=O)[C@@H](NC(=O)C(=NO)c3csc(N)n3)[C@H]2SC1", "assigned category": 0}

--- query ---
Dear colleague, could you share the recorded outcome for Nc1ccn(C[C@@H](CO)OCP(=O)(O)O)c(=O)n1 when you have a moment?
0

----------
- assay method text: Quantitative High-Throughput drug screen in 47 multiple myeloma cell lines against the NCATS MIPE library collection: ARP1_JJKsccF8 cell viability assay (AID 1918928; note: nearly all actives have a fitted effect of over 40% in size;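 for viability: 100% = DMSO only wells and 0% = medium only wells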)
- recorded conditions: ARP1 myeloma cells viability, CellTiter-Glo ATP, 48 h; series mostly up to 45.8 µM
Inconclusive results are not listed. Calls of active or inactive are those of the source. Calls come from the whole dose curve; as a rule, active = well fitted cell-killing curve with a large enough effect; inconclusive = small, poorly fitted or top-dose-only effect, or effect the other way; inactive = no such curve, though single readings can be large or run the other way. Positions of bridges follow the written chain, without caps; N, C: chain ends. Non-standard residues stand in square brackets, D forms with d. Residues, ends and D or L forms follow the SMILES beside them. ξ: configuration not given here. *: point of attachment. Octanoyl(6-Me) = CCC(C)CCCCC(=O)*; ξThr(3R) = C[C@@H](O)C(N)C(=O)O; dDab = NCC[C@@H](N)C(=O)O; Dab = NCC[C@H](N)C(=O)O
Select the correct class. Options are active, inactive and nothing else.

Answered examples (2):
{"molecule": "C=C1C[C@@]2(O)O[C@@]3(C[C@H]2C(C)C)[C@H](C)CC[C@H]13", "assigned category": "inactive"}
{"molecule": "Cn1cc(C2=C(c3c4n(c5ccccc35)CCC(CN)C4)C(=O)NC2=O)c2ccccc21 (stereo unspecified)", "assigned category": "active"}

Dear colleague, could you share the recorded outcome for CCC(C)CCCCC(=O)N[C@@H](CCN)C(=O)NC(C(=O)N[C@H](CCN)C(=O)N[C@@H]1CCNC(=O)C([C@@H](C)O)NC(=O)[C@@H](CCN)NC(=O)[C@@H](CCN)NC(=O)[C@@H](CC(C)C)NC(=O)[C@H](Cc2ccccc2)NC(=O)[C@H](CCN)NC1=O)[C@@H](C)O (stereo partly drawn) ({Octanoyl(6-Me)}-[Dab][ξThr(3R)][dDab][dDab][Dab]F[dL][dDab][dDab][ξThr(3R)]; lactam 4-C) when you have a moment?
inactive

# repeat for COc1ccc(S(=O)(=O)Nc2cc(-c3c(O)ccc4ccccc34)c(O)c3ccccc23)cc1
active

# repeat for O=C(O)CCCCCC(=O)NN=C1CCCC1
inactive

# repeat for COc1cccc2c1C(=O)c1c(O)c3c(c(O)c1C2=O)C[C@@](O)(C(=O)CO)C[C@@H]3O[C@H]1C[C@H](N)[C@@H](O)[C@H](C)O1
active
